Cited source for all entries: ChEMBL document CHEMBL3600314

Assay: Solubility of the compound in SGF
Type: physicochemical
PROPERTY NAME: solubility (µg/mL)
Output spec: scalar in µg/mL, unitless text.

compound "C[C@H](NC(=O)[C@H]1CCCCN1CCOc1ccccc1)c1ccc(C(=O)O)cc1.Cl" , solubility observed: 1320

----------
Assay: Plasma concentration in Beagle dog at 10 mg/kg, po measured over 24 hrs
Assay type: ADME, organism-based, Canis lupus familiaris
PROPERTY NAME: concentration at 24 h

Recorded result, "C[C@H](NC(=O)[C@H]1CCCCN1CCOc1ccccc1)c1ccc(C(=O)O)cc1.Cl" , concentration at 24 h: > 100 nM

----------
Target: Prostaglandin E2 receptor EP1 subtype (Homo sapiens, UniProt P34995)
Sequence (P34995 whole entry): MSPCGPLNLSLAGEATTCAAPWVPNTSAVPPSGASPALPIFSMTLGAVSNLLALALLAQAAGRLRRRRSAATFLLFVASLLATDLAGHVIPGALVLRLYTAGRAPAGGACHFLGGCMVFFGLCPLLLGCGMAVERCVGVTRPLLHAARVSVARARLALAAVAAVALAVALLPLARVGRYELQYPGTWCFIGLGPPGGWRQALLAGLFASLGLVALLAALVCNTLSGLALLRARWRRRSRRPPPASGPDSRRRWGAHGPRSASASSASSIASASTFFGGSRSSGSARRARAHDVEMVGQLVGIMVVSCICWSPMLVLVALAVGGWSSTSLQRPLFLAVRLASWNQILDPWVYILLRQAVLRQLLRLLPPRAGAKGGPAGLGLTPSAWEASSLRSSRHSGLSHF
pIC50: −log10 of the molar value.
PROPERTY NAME: pIC50

For record "C[C@H](NC(=O)[C@H]1CCCCN1CCOc1ccccc1)c1ccc(C(=O)O)cc1.Cl" the listed pIC50 is < 4.60

----------
Experiment: Solubility of the compound in FasSIF
Format: physicochemical
PROPERTY NAME: solubility

Sure, the documented solubility for "C[C@H](NC(=O)[C@H]1CCCCN1CCOc1ccccc1)c1ccc(C(=O)O)cc1.Cl" is > 2000 µg/mL

----------
Target: UniProtKB P43115
Sequence (P43115 whole entry): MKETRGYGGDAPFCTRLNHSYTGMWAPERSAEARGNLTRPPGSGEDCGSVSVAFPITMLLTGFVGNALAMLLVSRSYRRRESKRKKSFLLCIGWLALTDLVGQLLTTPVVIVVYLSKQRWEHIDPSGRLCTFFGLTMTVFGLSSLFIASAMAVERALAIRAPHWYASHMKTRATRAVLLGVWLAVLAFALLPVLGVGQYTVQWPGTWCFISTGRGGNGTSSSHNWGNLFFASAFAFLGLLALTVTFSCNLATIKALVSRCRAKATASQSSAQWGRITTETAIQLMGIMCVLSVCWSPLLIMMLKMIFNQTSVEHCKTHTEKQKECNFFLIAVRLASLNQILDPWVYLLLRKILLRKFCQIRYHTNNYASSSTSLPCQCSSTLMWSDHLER
pIC50: −log10 of the molar value.
PROPERTY NAME: pIC50

// pIC50 lookup, compound = "C[C@H](NC(=O)[C@H]1CCCCN1CCOc1ccccc1)c1ccc(C(=O)O)cc1.Cl" , result: < 4.60

----------
Assay: Plasma concentration in Beagle dog at 10 mg/kg, po measured over 12 hrs
Format: ADME, organism-based, Canis lupus familiaris
PROPERTY NAME: concentration at 12 h

Quick note, concentration at 12 h for "C[C@H](NC(=O)[C@H]1CCCCN1CCOc1ccccc1)c1ccc(C(=O)O)cc1.Cl" landed at > 1000 nM

----------
Test: Clearance in Beagle dog at 10 mg/kg, po and 1 mg/kg, iv
Type: ADME, organism-based, Canis lupus familiaris
Conditions: in vivo
PROPERTY NAME: clearance (mL/min/kg)
Enter your answer as a number in mL/min/kg; do not include the unit.

Lab note: "C[C@H](NC(=O)[C@H]1CCCCN1CCOc1ccccc1)c1ccc(C(=O)O)cc1.Cl" gave clearance of 5.2

----------
Biological target: Prostaglandin E2 receptor EP4 subtype (Homo sapiens, UniProt P35408)
Sequence (P35408 whole entry): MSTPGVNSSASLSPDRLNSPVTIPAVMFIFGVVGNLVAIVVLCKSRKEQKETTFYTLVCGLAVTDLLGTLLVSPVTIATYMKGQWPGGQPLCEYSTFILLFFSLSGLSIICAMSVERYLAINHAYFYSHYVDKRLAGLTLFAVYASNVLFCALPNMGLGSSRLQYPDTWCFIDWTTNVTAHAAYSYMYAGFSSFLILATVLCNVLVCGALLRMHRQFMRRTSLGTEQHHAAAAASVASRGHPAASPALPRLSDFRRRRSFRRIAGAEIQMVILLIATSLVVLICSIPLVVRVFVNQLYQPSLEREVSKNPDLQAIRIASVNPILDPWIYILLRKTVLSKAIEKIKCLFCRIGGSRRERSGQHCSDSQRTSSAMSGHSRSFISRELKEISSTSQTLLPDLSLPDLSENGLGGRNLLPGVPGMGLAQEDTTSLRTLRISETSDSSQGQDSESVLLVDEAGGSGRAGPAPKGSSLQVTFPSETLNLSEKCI
Test: Antagonist activity at recombinant human EP4 receptor expressed in HEK293 cells assessed as inhibition of PGE2-stimulated cAMP accumulation by scintillation proximity assay in presence of [125I]-cAMP
Type: functional, cell-based
PROPERTY NAME: pIC50
pIC50 here is simply -log10 of the concentration when that concentration is written in mol/L.

Before answering, review these 4 worked examples.
C[C@H](NC(=O)[C@H]1CCCCN1CCOc1ccc(F)cc1)c1ccc(C(=O)O)cc1: 8.54
C[C@H](NC(=O)[C@H]1CCCCN1CCOc1ccc(C#N)cc1)c1ccc(C(=O)O)cc1: 7.45
O=C(O)c1ccc(CNC(=O)[C@H]2CCCCN2CCOc2ccccc2)cc1: 7.74
O=C(O)c1ccc(C2(NC(=O)[C@H]3CCCCN3CCOc3ccccc3)CC2)cc1: 8.27

Query compound follows.
The recorded pIC50 for "CC[C@H](NC(=O)[C@H]1CCCCN1CCOc1ccccc1)c1ccc(C(=O)O)cc1" is 7.84
